test.details: Half life in human liver microsomes
measurement.context: microsomes
endpoint.label: half-life (min)

P. NC(=O)c1nn(-c2ccc(F)cc2)c2c1CCc1ccc(NC(=O)c3cc(N4CCN(Cc5cnn(CC(=O)NCCO)c5)CC4)ncc3Cl)cc1-2
Q. NC(=O)c1nn(-c2ccc(F)cc2)c2c1CCc1ccc(NC(=O)c3cc(N4CCN(Cc5cn[nH]c5)CC4)ncc3Cl)cc1-2
Which gives the smaller half-life number: P or Q ? Give the label of your selection.
Q

a. Cn1cc(CN2CCN(c3cc(C(=O)Nc4ccc5c(c4)-c4c(c(C(N)=O)nn4-c4cccc(F)c4)CC5)c(Cl)cn3)CC2)cn1
b. NC(=O)c1nn(-c2ccc(F)cc2)c2c1CCc1ccc(NC(=O)c3cc(N4CCN(Cc5cnn(CCCO)c5)CC4)ncc3Cl)cc1-2
c. CN(C)CCCNC(=O)Cn1cc(CN2CCN(c3cc(C(=O)Nc4ccc5c(c4)-c4c(c(C(N)=O)nn4-c4ccc(F)cc4)CC5)c(Cl)cn3)CC2)cn1
Please rank these compounds by half-life in descending order. Answer by listing the labels in the order asked for.
c, a, b
(c: 36 min, a: 14 min, b: 9 min)
